# Tested on: IGROV-1
# Procedure Summary: NCI tumour cell line growth inhibition, 48 h
Activity calls are given as the source filed them. No stated cut-off is given here; in the data, active = GI50 up to about 1.1 µM and inactive = higher. Where a SMILES comes first, the peptide text is derived from it.
Recorded GI50 by entry
Readout Kind: GI50

Compound: CC(C)CC(NC(=O)C(Cc1ccccc1)NC(=O)C(Cc1c[nH]c2ccccc12)NC(=O)CNC(=O)C(N)Cc1ccc(O)cc1)C(=O)O (configuration not stated) (H-YGWFL-OH; configuration not given here)
Measured: 58.7 µM (inactive)
//
Compound: CC(=O)NC1CONC1=O (configuration not stated)
Measured: > 100 µM (inactive)
//
Compound: CN(C)c1cc2ccccc2oc1=O
Measured: > 100 µM (inactive)
//
Compound: NC(=S)N/N=C1/C(=O)N(c2ccc(Cl)cc2Cl)C(=O)C(=O)C1c1nc2ccccc2s1 (configuration not stated)
Measured: > 100 µM (inactive)
//
Compound: CCOC(=O)N/N=C(/N)c1cccc([N+](=O)[O-])c1
Measured: > 100 µM (inactive)
//
Compound: COc1cc(C(=O)NNC(=O)c2cc(Br)ccc2NC(=O)c2cccs2)cc(OC)c1OC
Measured: 22.6 µM (inactive)
//
Compound: NC(=O)CSc1c2cc(O)ccc2nc2ccc(O)cc12
Measured: > 10 µM (inactive)

Where these numbers come from: ChEMBL document CHEMBL1201862
